Each entry below lists one item and its recorded logP value.
Please respond with just the number, no unit label.

Answered cases to consult:
CCC1OC(=O)C(C)C(OC2CC(C)(OC)C(O)C(C)O2)C(C)C(OC2OC(C)CC(N(C)C)C2O)C(C)(O)CC(C)C(=O)C(C)C(OC(C)=O)C1(C)O (stereo unspecified) | 2.85
O=c1ccccc(O)c1 | 0.81
Cc1c(Br)cccc1N=C1NCCN1 | 1.94

[ask] // lookup logP for CCC(CC)(C(=O)NC(N)=O)C(=O)OCc1ccccc1
[reply] 2.74

[ask] Try the molecule CC(C)C(Nc1ccccc1)C(=O)OCc1ccccc1 (stereo unspecified)
[reply] 4.41

[ask] Try the molecule CC1=C(C(=O)Nc2ccccc2-c2ccccc2)SCCO1
[reply] 2.54

---

Each entry below lists one item and its recorded logP value.

Answered cases to consult:
Cc1cccc(C(=O)c2ccc3n2CCC3C(=O)O)c1 (stereo unspecified) | 3.23
C=C1C(=O)OC2C1C(OC(=O)C(C)=CC)CC(O)(CCl)C1C(OC(C)=O)C=C(C)C21O (stereo unspecified) | 1.42

[ask] // lookup logP for COc1cc(Cc2cnc(N)nc2N)ccc1N(C)C
[reply] 1.87

[ask] Try the compound Cc1cc(C)cc(C2C(=O)c3ccccc3C2=O)c1
[reply] 4.02

[ask] Try the compound O=C(O)Cc1ccc(C2CCCC2)cc1
[reply] 3.44

[ask] Try the compound c1ccc2c(c1)Cc1c-2ccc2ccccc12
[reply] 5.4

---

value.kind: logP
Please respond with just the number, no unit label.

CCNC(C)Cc1cccc(C(F)(F)F)c1 (stereo not drawn) | 3.36
OCc1cccc2ccccc12 | 2.37
O=[N+]([O-])c1cn(CCN2CCOCC2)cn1 | -0.38
CCN(CC)CCNC(=O)c1ccc(N)cc1OC | 1.4

Consider the record given below.
[ask] // lookup logP for O=C(Cn1ccnc1[N+](=O)[O-])NCc1ccccc1
[reply] 0.91

---

Each entry below lists one item and its recorded logP value.
Please respond with just the number, no unit label.

Answered cases to consult:
CCCCCCCCCC[N+](C)(C)C.[I-] | -0.16
CCc1cccc(C2C(=O)c3ccccc3C2=O)c1 | 3.92
O=C(c1ccc(Cl)cc1Cl)c1ccc2n1CCC2C(=O)O (stereo unspecified) | 3.56
CCCCCCC(C)(C)c1cc(O)c2c(c1)OC(C)(C)[C@@H]1CC=C(CO)C[C@@H]21 | 7.44
OC1(c2cc(Cl)ccc2Cl)CCCCC1n1cncn1 (stereo unspecified) | 3.24

[ask] // lookup logP for COc1ccc(C2C(=O)c3ccccc3C2=O)cc1
[reply] 2.88

[ask] Try the compound CC(C)OC(=O)[C@@H](N)Cc1ccc(O)c(O)c1
[reply] 0.57

---

Each entry below lists one item and its recorded logP value.
Where a SMILES comes first, the peptide text is derived from it.

Brc1cccc(N=C2NCCN2)c1Br | 2.16

[ask] // lookup logP for COc1ccc(CC(C)N)cc1OC (stereo not given)
[reply] 1.2

[ask] Try the molecule C=CCC(NC(=O)C(Cc1ccc(OC)cc1)NS(=O)(=O)N1CCOCC1)C(=O)NC(CC1CCCCC1)C(=O)C(F)(F)C(=O)NCCN1CCOCC1 (stereo not given)
[reply] 2.73

[ask] Try the molecule O=C(COc1ccc(OCCNCC(O)COc2ccccc2)cc1)NCCCO (stereo not given)
[reply] 0.5

[ask] Try the molecule Nc1c([N+](=O)[O-])ccc2ncccc12
[reply] 1.61

[ask] Try the molecule CCN(CC)C(C)CC(=O)Nc1c(C)cccc1C (stereo not given)
[reply] 2.63

[ask] Try the molecule CC(=O)NCC(=O)N[C@H](C(N)=O)C(C)C (Ac-Gly-Val-NH2)
[reply] -1.33

[ask] Try the molecule CC(=O)c1ccccc1Br
[reply] 2.28

[ask] Try the molecule CNC(=O)c1cc(Br)cc(C)c1O
[reply] 3.51

[ask] Try the molecule Nc1ccn([C@H]2C=C[C@@H](CO)O2)c(=O)n1
[reply] -1.55

[ask] Try the molecule CCNC(=O)NS(=O)(=O)c1ccc(C)cc1
[reply] 1.14

[ask] Try the molecule O=C1NC(=O)c2cc(-c3ccccc3)ccc21
[reply] 2.97

[ask] Try the molecule Cc1cn([C@H]2CC[C@@H](CO)O2)c(=O)[nH]c1=O
[reply] -0.6

[ask] Try the molecule Oc1cc2ccccc2cc1O
[reply] 2.24

[ask] Try the molecule COCc1ccc(C#N)cc1
[reply] 1.23

[ask] Try the molecule CC1=CC(=O)C(C(C)C)=CC1=O
[reply] 2.2

[ask] Try the molecule CCCCCC=CCC=CCCCCCCCC(=O)O
[reply] 7.05

[ask] Try the molecule CCOC(=O)c1cccc(O)c1
[reply] 2.47

[ask] Try the molecule CC(=O)c1c(O)c(C)c(O)c2c1OC1=CC(=O)C(C(C)=O)C(=O)C12C (stereo not given)
[reply] 2.88

[ask] Try the molecule CCOC(=O)c1cnc(-c2ccc(OCC(O)CNCCc3ccc(OC)c(OC)c3)cc2)[nH]1 (stereo not given)
[reply] 2.3

[ask] Try the molecule O=C(CN1CCCCC1)NCc1ccccc1
[reply] 2.27

[ask] Try the molecule CCc1cccc2ccccc12
[reply] 4.4

[ask] Try the molecule CCCOC(=O)c1ccccc1Cl
[reply] 3.45

[ask] Try the molecule CCC1OC(=O)C(C)C(OC2CC(C)(OC)C(OC=O)C(C)O2)C(C)C(OC2OC(C)CC(N(C)C)C2O)C(C)(O)CC(C)C(=O)C(C)C(O)C1C (stereo not given)
[reply] 3.05

[ask] Try the molecule Cc1ncsc1CCCl
[reply] 2.12

---

value.kind: logP
Please respond with just the number, no unit label.

COc1cc(Cc2cnc(N)nc2N)c(I)c(OC)c1OC | 1.79
CCN(CC)CC(=O)NCc1ccccc1 | 2.14
CC(C)N1C(=O)SC(=Cc2ccc([N+](=O)[O-])o2)C1=O | 2.42
CN1CCC(=C2c3ccccc3C=Cc3ccccc32)CC1 | 4.69
Clc1cccc(-c2cccc(Cl)c2)c1 | 5.27
CCN(CC)C(C)C(=O)Nc1c(C)cccc1C (stereo not drawn) | 2.73
c1ccc(-c2nc3ccccc3o2)cc1 | 3.67
COc1ccc(NC(=O)CN2CCCCC2)cc1 | 2.52
OC(CN1CCOCC1)(c1ccc(F)cc1)c1ccc(-c2ccncc2)cc1 (stereo not drawn) | 2.82
OC(Cn1ccnc1)(c1ccc(-c2cccnc2)cc1)c1ccc(F)cc1F (stereo not drawn) | 3.31

[ask] // lookup logP for CN(C)c1nc(N(C)C)nc(N(C)O)n1
[reply] 1.61

[ask] Try the molecule O=c1c2ccccc2nc2n1CCC2
[reply] 1.07

[ask] Try the molecule COc1ccc(COc2ccccc2C(N)=O)cc1
[reply] 1.63

---

value.kind: logP
Please respond with just the number, no unit label.

O=C(CN1CCCC1)NCc1ccccc1 | 1.69
c1ccc(C2CCCN2)cc1 (configuration not stated) | 1.89
CC(C)c1cccc(C(C)C)c1NC1=NCCN1 | 3.04

[ask] // lookup logP for O=C(O)c1ccc(Cl)cc1Nc1ccccc1
[reply] 4.25

---

Given measured logP, output yes if it is greater than or equal to 2 and no if not.

Solved cases below.
O=C(Cn1ccnc1[N+](=O)[O-])NC(CO)(CO)CO | no
N[C@@H](Cc1ccc(O)c(O)c1)C(=O)O | no
O=[N+]([O-])c1cnc(N=C2NCCO2)s1 | no
CCNc1nc(Cl)nc(NC2CC2)n1 | yes
CCCCCCCCCCC(=O)O | yes

[ask] Determine whether this compound has logP no lower than 2: C=CCC(NC(=O)C(Cc1ccccc1)NS(=O)(=O)N1CCOCC1)C(=O)NC(CC1CCCCC1)C(=O)C(F)(F)C(=O)NCCN1CCOCC1 (centres undefined)
[reply] yes

[ask] Try the compound CCCCCc1cc(OC)c2c(c1)OC(C)(C)C1CC=C(C)CC21 (centres undefined)
[reply] yes

[ask] Try the compound CCN1CC(C(O)C(CC2CCCCC2)NC(=O)C(Cc2cnc[nH]2)NC(=O)C(Cc2ccc(OC)cc2)NC(=O)N2CCOCC2)OC1=O (centres undefined)
[reply] yes

[ask] Try the compound COc1ccc(Cc2cnc(N)nc2N)cc1C(C)C
[reply] yes

[ask] Try the compound COc1cc(Cc2cnc(N)nc2N)ccc1C(C)C
[reply] yes

[ask] Try the compound CCC1(CC)C(=O)NC(=O)N=C1OC(C)C
[reply] no

[ask] Try the compound CCCCCC1Nc2cc(C(F)(F)F)c(S(N)(=O)=O)cc2S(=O)(=O)N1 (centres undefined)
[reply] yes

[ask] Try the compound Cc1cc(=O)oc2c1ccc1occc12
[reply] yes

[ask] Try the compound CCC1OC(=O)C(C)C(OC2CC(C)(OC)C(OC(C)=O)C(C)O2)C(C)C(OC2OC(C)CC(N(C)C)C2O)C(C)(O)CC(C)C(=O)C(C)C(O)C1C (centres undefined)
[reply] yes

[ask] Try the compound CC(=O)Nc1c(I)c(C(=O)N(C)CC(O)CO)c(I)c(C(=O)N(C)CC(O)CO)c1I (centres undefined)
[reply] no

[ask] Try the compound COc1cc(C)c(/C=C/C(C)=C/C=C/C(C)=C/C(=O)O)c(C)c1C
[reply] yes

[ask] Try the compound CC(=O)NCc1cccc(OCC(O)CNC(C)C)c1 (centres undefined)
[reply] no

[ask] Try the compound CC(=O)OCC1=C(C(=O)OCOC(=O)C(C)(C)C)N2C(=O)C(NC(=O)Cc3cccs3)C2SC1 (centres undefined)
[reply] no

[ask] Try the compound CCCCCCC(C)(C)c1ccc(C2CC(O)CCC2C)c(O)c1 (centres undefined)
[reply] yes

[ask] Try the compound CCc1ccc(C)cc1
[reply] yes

[ask] Try the compound CCCCCCc1ccc(CC(=O)O)cc1
[reply] yes

[ask] Try the compound N#CSO
[reply] no

[ask] Try the compound Cc1ccc(N(CCO)CCO)cc1
[reply] no
